Data provenance: patent US11591333B2

- Test system: mouse spleen cells
- measurement-description: Mitogen ConA-induced mouse spleen cell proliferation (CCK8)
- Format: cell-based
- conditions-used: mouse spleen cells, ConA as stimulus; read-out: Inhibition activity (EC50), ConA induction
measured-property: pEC50
By convention, pEC50 is the negative base-10 log of a molar concentration.

INSERT INTO results (molecule, measured_property, observed_measurement) VALUES
  ('Cc1oncc1C(=O)Nc1ccc(N(C)c2ncnc3[nH]ccc23)cc1 [Compound 2]', 'pEC50', 4.39);

Then there is this molecule:
Lab note: record pEC50 of CN(c1ccc(N)cc1)c1ncnc2[nH]ccc12 [Compound 1] tested on mouse spleen cells.
4.27
